B1: LINE1-mini (parent)
chain: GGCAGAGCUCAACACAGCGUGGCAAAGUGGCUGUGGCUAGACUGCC

- Variants of: B1
- Protocol Details: self-cleavage, relative activity (ratio to wild type); higher = more cleavage; in vitro, sequencing; the parent is a self-cleaving ribozyme
Assign 1 (yes) to entries whose self-cleavage meets or exceeds 0.1; assign 0 (no) to the rest.

Example results:
Mutation Name: G40C C46G
Category: 0 (no)

Mutation Name: C13A G22A
Category: 1 (yes)

Mutation Name: A11U C45A
Category: 0 (no)

Mutation Name: C3U A11G
Category: 0 (no)

Mutation Name: A11U C45G
Category: 0 (no)

Attention now turns to another entry.
I'd appreciate it if you could say whether G21U G33U has self-cleavage at least equal to 0.1.
1 (yes)
